Experiment: Phase 1 first-in-human study, plasma pharmacokinetics
Assay type: in vivo
Details: male, human, plasma, po, 100 mg, single 100 mg oral solution, male fasted; read-out: t1/2, dom (converted)
measured.metric: half-life (h)
One number for each entry, in h.

IN: Need half-life of C=CC(=O)N[C@H]1CCC[C@H]1NC(=O)c1sc2nccc3c2c1NC(=O)N3c1cnc(CC(C)C)cc1C (atropisomer, axis not shown) [compound of Formula (III)] , thanks.
OUT: 1.9

====

Test: Blood-to-plasma concentration ratio
Type: in vitro ADME
Settings: dog, fresh blood
measured.metric: blood plasma ratio at 1 μM
One number for each entry.

IN: What value of blood plasma ratio at 1 μM has been reported for the following compound? C=CC(=O)N[C@H]1CCC[C@H]1NC(=O)c1sc2nccc3c2c1NC(=O)N3c1cnc(CC(C)C)cc1C (atropisomer, axis not shown)
OUT: 0.75
